TESTED_TARGET: LRRK2 (leucine-rich repeat kinase 2) (Homo sapiens (Human), UniProt Q5S007)
Sequence (Q5S007 whole entry): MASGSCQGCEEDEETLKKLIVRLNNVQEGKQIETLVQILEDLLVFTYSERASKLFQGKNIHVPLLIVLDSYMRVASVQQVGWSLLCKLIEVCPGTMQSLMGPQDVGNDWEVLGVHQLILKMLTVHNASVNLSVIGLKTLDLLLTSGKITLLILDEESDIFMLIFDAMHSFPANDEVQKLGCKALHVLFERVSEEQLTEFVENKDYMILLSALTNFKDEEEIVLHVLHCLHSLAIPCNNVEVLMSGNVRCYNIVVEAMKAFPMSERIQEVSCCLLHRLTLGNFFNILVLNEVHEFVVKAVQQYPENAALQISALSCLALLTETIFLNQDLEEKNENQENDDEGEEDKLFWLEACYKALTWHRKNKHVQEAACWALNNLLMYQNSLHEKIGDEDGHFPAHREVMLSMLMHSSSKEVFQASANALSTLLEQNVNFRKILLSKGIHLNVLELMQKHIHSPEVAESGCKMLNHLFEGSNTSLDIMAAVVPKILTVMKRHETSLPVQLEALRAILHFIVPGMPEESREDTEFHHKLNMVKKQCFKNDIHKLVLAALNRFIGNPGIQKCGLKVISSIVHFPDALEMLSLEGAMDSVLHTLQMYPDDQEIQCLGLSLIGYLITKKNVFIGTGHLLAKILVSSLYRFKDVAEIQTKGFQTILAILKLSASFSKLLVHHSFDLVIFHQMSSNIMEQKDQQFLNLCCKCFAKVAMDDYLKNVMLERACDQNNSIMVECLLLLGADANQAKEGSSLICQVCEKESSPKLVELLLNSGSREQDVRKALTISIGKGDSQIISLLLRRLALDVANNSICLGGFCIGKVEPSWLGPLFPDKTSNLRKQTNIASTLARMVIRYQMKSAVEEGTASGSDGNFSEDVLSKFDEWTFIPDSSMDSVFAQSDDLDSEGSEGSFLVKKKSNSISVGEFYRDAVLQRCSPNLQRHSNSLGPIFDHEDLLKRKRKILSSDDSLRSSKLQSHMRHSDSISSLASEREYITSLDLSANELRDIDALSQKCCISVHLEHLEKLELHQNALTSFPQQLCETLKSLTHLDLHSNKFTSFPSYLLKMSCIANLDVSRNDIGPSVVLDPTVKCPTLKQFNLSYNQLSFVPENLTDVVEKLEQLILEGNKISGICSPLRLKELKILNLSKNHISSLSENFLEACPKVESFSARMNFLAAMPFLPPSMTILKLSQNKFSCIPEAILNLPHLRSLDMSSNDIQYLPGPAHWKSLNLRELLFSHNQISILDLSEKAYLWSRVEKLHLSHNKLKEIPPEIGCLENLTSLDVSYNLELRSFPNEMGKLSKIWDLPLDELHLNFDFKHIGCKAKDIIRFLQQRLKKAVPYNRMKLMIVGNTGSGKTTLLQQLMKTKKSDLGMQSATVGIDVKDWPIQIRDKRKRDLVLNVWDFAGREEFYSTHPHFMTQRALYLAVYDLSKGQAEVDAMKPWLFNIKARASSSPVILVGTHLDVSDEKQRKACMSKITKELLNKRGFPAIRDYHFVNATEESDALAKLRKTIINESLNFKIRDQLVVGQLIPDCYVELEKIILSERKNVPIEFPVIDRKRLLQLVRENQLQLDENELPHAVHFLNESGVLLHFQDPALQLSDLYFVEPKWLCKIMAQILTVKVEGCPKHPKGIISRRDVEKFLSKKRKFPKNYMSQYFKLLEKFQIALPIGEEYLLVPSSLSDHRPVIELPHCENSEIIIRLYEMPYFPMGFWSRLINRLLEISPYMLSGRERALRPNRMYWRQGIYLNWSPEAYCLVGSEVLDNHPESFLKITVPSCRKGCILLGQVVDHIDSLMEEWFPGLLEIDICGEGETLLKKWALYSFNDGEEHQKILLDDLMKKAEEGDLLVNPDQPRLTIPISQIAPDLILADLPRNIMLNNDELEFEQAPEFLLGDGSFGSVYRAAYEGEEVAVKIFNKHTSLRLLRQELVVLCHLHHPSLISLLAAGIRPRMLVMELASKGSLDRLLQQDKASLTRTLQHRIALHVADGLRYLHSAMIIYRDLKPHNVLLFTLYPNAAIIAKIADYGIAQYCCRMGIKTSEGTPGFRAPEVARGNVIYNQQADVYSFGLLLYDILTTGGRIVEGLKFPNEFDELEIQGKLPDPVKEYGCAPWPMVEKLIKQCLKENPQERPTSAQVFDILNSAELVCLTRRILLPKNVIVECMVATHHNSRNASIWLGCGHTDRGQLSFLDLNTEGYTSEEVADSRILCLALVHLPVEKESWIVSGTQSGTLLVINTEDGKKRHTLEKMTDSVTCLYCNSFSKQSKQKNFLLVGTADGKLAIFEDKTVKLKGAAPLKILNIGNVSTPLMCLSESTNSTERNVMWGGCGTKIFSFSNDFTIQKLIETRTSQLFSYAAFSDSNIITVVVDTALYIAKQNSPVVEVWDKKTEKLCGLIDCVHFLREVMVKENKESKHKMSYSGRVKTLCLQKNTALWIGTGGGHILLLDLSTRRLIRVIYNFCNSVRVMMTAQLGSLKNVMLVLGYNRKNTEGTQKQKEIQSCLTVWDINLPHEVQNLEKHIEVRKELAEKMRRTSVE
EXPERIMENTAL_DETAILS: Inhibitory effect on LRRK2 in vitro (LANCE kinase assay)
Assay type: biochemical
EXPERIMENTAL_CONDITIONS: purified LRRK2, Table 6; read-out: IC50
pIC50: −log10 of the molar value.
MEASURE: pIC50

# example entries with known answers
| SAMPLE_SMILES | pIC50 |
| --- | --- |
| CCn1nc(Cl)c2cnc(Nc3cn(C4CCN(C(=O)C5CC5)CC4)nc3Cl)nc21 | 8.14 |
| CCn1cc(Cl)c2cnc(Nc3cn(C4CCN(C(=O)N5CCN(C)CC5)CC4)nc3Cl)nc21 | 8.60 |

1. CCn1nc(Cl)c2cnc(Nc3cn(C4CCN(S(=O)(=O)CC)CC4)nc3Cl)nc21
2. CCn1cc(Cl)c2cnc(Nc3cnn(C4CCN(C5COC5)CC4)c3Cl)nc21
Compare reported pIC50 values for 1 and 2 . Which is lower? Your answer should be the label attached to the chosen record.
2

* * *

Item-by-item account of pIC50
TESTED_TARGET: LRRK2 (leucine-rich repeat kinase 2) (Homo sapiens (Human))
EXPERIMENTAL_DETAILS: Inhibitory effect on LRRK2 in vitro (LANCE kinase assay)
Assay type: biochemical
EXPERIMENTAL_CONDITIONS: Table 1, class symbols; read-out: LRRK2 inhibition rate (IC50)
pIC50: −log10 of the molar value.

# example entries with known answers
| COMPOUND | MEASURED_RESULT |
| --- | --- |
| CCn1nc(Cl)c2cnc(Nc3cn(C4CCN(S(=O)(=O)C5CC5)CC4)nc3Cl)nc21 [Compound 47] | > 8.00 |
| CCn1nc(Cl)c2cnc(Nc3cn(-c4ccc(F)cc4)nc3Cl)nc21 [Compound 44] | 7.00 to 8.00 |
| CCn1cc(Cl)c2cnc(Nc3cn(C4CCN(S(C)(=O)=O)CC4)nc3Cl)nc21 [Compound 25] | > 8.00 |

Kindly consider the entry below.
Give pIC50 for the following compound: CCn1cc(Cl)c2cnc(Nc3cn([C@@H]4CCN(C(=O)C5CCCC5)C4)nc3Cl)nc21 [Compound 38]
7.00 to 8.00

* * *

Item-by-item account of pIC50
TESTED_TARGET: LRRK2 (leucine-rich repeat kinase 2) (Homo sapiens (Human))
EXPERIMENTAL_DETAILS: Inhibitory effect on LRRK2 in vitro (LANCE kinase assay)
Type: biochemical
EXPERIMENTAL_CONDITIONS: Table 1, class symbols; read-out: LRRK2 inhibition rate (IC50)
pIC50: −log10 of the molar value.

| COMPOUND | pIC50 |
| --- | --- |
| CCn1nc(Cl)c2cnc(Nc3cn(C4CCCN(S(C)(=O)=O)CC4)nc3Cl)nc21 (stereo not drawn) | > 8.00 |

Give pIC50 for the following compound: COc1nn(C(C)C)cc1Nc1ncc2c(Cl)cn(C)c2n1
7.00 to 8.00

Give pIC50 for the following compound: CCN1CCC(n2cc(Nc3ncc4c(Cl)cn(CC)c4n3)c(Cl)n2)CC1
7.00 to 8.00

Give pIC50 for the following compound: CCn1cc(Cl)c2cnc(Nc3cn(C4CC4)nc3Cl)nc21
7.00 to 8.00

Give pIC50 for the following compound: CCCCn1cc(Nc2ncc3c(Cl)cn(C)c3n2)c(C(F)(F)F)n1
5.00 to 6.00

Give pIC50 for the following compound: CCn1cc(Cl)c2cnc(Nc3cn(C4CCCN(C(=O)C5CC5)CC4)nc3Cl)nc21 (stereo not drawn)
> 8.00
